// values below are reported EC50 (FLIPR)
# test_system: T1, human NMUR1 (human, UniProt Q9HB89 1-426)
# T1 sequence (looked up): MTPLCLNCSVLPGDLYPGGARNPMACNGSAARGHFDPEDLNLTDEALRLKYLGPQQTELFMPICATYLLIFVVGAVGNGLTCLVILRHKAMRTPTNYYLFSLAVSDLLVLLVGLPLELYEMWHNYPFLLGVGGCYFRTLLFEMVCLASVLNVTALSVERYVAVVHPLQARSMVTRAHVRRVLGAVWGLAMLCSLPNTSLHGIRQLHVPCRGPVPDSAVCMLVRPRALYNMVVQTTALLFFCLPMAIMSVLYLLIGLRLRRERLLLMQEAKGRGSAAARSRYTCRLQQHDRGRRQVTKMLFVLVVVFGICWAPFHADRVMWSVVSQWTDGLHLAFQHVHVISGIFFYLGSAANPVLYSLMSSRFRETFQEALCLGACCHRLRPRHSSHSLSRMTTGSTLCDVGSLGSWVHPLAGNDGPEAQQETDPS
# test_summary: cell-based or functional assay
Starred links: 1 amine or outer side, 2 acyl side, 3 side chain; linkers in the order of their positions; H or OH if unused. Non-standard residues stand in square brackets, D forms with d. *: point of attachment. Ttds = 1-amino-4,7,10-trioxa-13-tridecanamine succinimic acid spacer, O=C(CCC(=O)[*:2])NCCCOCCOCCOCCCN[*:1]; (PEG)2 40 kDa = branched PEG of 40 kDa linked via the Cys side-chain thiol (code C2 = Cys(PEG)2 40 kDa); Succinimide(1-Et,3-yl) = CCN1C(=O)CC(*)C1=O; Palmitoyl = CCCCCCCCCCCCCCCC(=O)*
Please state the figure in nM; there is no need to write the unit.

For orientation, consider the following solved cases.
binder	value_observed
Ac-C(Succinimide(1-Et,3-yl))[Ttds]FLFRPRN-NH2 (SMILES CCN1C(=O)CC(SC[C@H](NC(C)=O)C(=O)NCCCOCCOCCOCCCNC(=O)CCC(=O)N[C@@H](Cc2ccccc2)C(=O)N[C@@H](CC(C)C)C(=O)N[C@@H](Cc2ccccc2)C(=O)N[C@@H](CCCNC(=N)N)C(=O)N2CCC[C@H]2C(=O)N[C@@H](CCCNC(=N)N)C(=O)N[C@@H](CC(N)=O)C(N)=O)C1=O) [NMU15]	7.7
Ac-C((PEG)2 40 kDa)GYFLFRPRN-NH2 [NMU7]	79.6
Palmitoyl-C((PEG)2 40 kDa)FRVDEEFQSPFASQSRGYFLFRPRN-NH2 [NMU25]	168

Attention now shifts to the item below.
## Task Provide only the value of recorded EC50 (FLIPR) for Ac-C((PEG)2 40 kDa)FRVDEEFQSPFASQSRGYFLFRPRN-NH2 [NMU9]
## Result 50.6

Values compiled from patent US20070244048A1.
